Source of measurements: PubChem BioAssay AID1963851

Form field: pIC50 (one value per entry).
- Tested on: 188146-221-R-J1-PDC complex spheroid viability
- procedure.details: Anticancer human tumor 188146-221-R-J1-PDC patient-derived colon adenocarcinoma cell line growth inhibition [POLQ]
- test.settings: curve of first compound; second compound 3.16 µM
pIC50: −log10 of the molar value.
assay.readout: pIC50

molecule: CCc1c2c(nc3ccc(O)cc13)-c1cc3c(c(=O)n1C2)COC(=O)[C@]3(O)CC + Nc1ccc(C#CCN(C(=O)Cc2ncc(C(F)(F)F)cc2C(F)(F)F)c2ccc(F)cc2)nn1
observed: 7.58
//
molecule: COc1cc(C2c3cc4c(cc3C(OC3OC5COC(C)OC5C(O)C3O)C3COC(=O)C23)OCO4)cc(OC)c1O (stereo unspecified) + COC1C(OC(N)=O)C(O)C(Oc2ccc3c(O)c(NC(=O)c4ccc(O)c(CC=C(C)C)c4)c(=O)oc3c2C)OC1(C)C
observed: 6.02
//
molecule: C#Cc1c(F)ccc2cc(O)cc(-c3ncc4c(N5CC6CCC(C5)N6)nc(OCC56CCCN5CC(F)C6)nc4c3F)c12 (stereo unspecified) + Cc1cccc(N(C)C(=O)C2C(O)CCN2c2nc(C)cc(C(F)(F)F)c2C#N)c1
observed: < 5.00
//
molecule: CCc1cc2c(N3CCc4c(cc(Cn5ccnc5)cc4-c4cn(C)nc4C(F)(F)F)C3=O)ccnc2c(OC)n1 + Nc1ccc(C#CCN(C(=O)Cc2ncc(C(F)(F)F)cc2C(F)(F)F)c2ccc(F)cc2)nn1
observed: < 5.00
//
molecule: CCCS(=O)(=O)Nc1ccc(F)c(C(=O)c2c[nH]c3ncc(-c4ccc(Cl)cc4)cc23)c1F + COC1C(OC(N)=O)C(O)C(Oc2ccc3c(O)c(NC(=O)c4ccc(O)c(CC=C(C)C)c4)c(=O)oc3c2C)OC1(C)C
observed: 5.11
//
molecule: CNCc1ccc(-c2[nH]c3cc(F)cc4c3c2CCNC4=O)cc1 + Nc1ccc(C#CCN(C(=O)Cc2ncc(C(F)(F)F)cc2C(F)(F)F)c2ccc(F)cc2)nn1
observed: < 5.00
//
molecule: COc1cc2cc(C(=O)CCC(=O)O)sc2cc1OC + Nc1ccc(C#CCN(C(=O)Cc2ncc(C(F)(F)F)cc2C(F)(F)F)c2ccc(F)cc2)nn1
observed: < 5.00
//
molecule: C=CC(=O)N1CCN(c2nc(=O)n(-c3c(C)ccnc3C(C)C)c3nc(-c4c(O)cccc4F)c(F)cc23)C(C)C1 (stereo unspecified) + COC1C(OC(N)=O)C(O)C(Oc2ccc3c(O)c(NC(=O)c4ccc(O)c(CC=C(C)C)c4)c(=O)oc3c2C)OC1(C)C
observed: < 5.00
//
molecule: Cn1ncnc1[C@H]1c2n[nH]c(=O)c3cc(F)cc(c23)N[C@@H]1c1ccc(F)cc1 + Cc1cccc(N(C)C(=O)C2C(O)CCN2c2nc(C)cc(C(F)(F)F)c2C#N)c1
observed: < 7.00
//
molecule: CNCc1ccc(-c2[nH]c3cc(F)cc4c3c2CCNC4=O)cc1 + Cc1cccc(N(C)C(=O)C2C(O)CCN2c2nc(C)cc(C(F)(F)F)c2C#N)c1
observed: < 5.00
//
molecule: CC1COCCN1c1cc(-c2ccnn2C)c2ccnc(-c3ccn[nH]3)c2n1 (stereo unspecified) + COC1C(OC(N)=O)C(O)C(Oc2ccc3c(O)c(NC(=O)c4ccc(O)c(CC=C(C)C)c4)c(=O)oc3c2C)OC1(C)C
observed: 6.69

* * *

- Test system: 188146-221-R-J1-PDC complex spheroid viability
- procedure.details: Anticancer human tumor 188146-221-R-J1-PDC cell line growth inhibition [POLQ];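 further: spheroids exposed to compounds for seven days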;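 on viability, T/C: 100% = DMSO vehicle control viability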
- test.settings: second compound 0.1 µM; first compound 0.001 µM; stronger effect = lower value
Here the recorded viability, T/C is given for each entry.
assay.readout: viability, T/C (%)

compound: CC[C@@]1(O)C(=O)OCc2c1cc1n(c2=O)Cc2cc3c(CN(C)C)c(O)ccc3nc2-1 + Nc1ccc(C#CCN(C(=O)Cc2ncc(C(F)(F)F)cc2C(F)(F)F)c2ccc(F)cc2)nn1
assay.readout: viability, T/C
observed: 84.1
//
compound: CC[C@@]1(O)C(=O)OCc2c1cc1n(c2=O)Cc2cc3c(CN(C)C)c(O)ccc3nc2-1 + COC1C(OC(N)=O)C(O)C(Oc2ccc3c(O)c(NC(=O)c4ccc(O)c(CC=C(C)C)c4)c(=O)oc3c2C)OC1(C)C
assay.readout: viability, T/C
observed: 100
//
compound: Cn1ncnc1[C@H]1c2n[nH]c(=O)c3cc(F)cc(c23)N[C@@H]1c1ccc(F)cc1 + Cc1cccc(N(C)C(=O)C2C(O)CCN2c2nc(C)cc(C(F)(F)F)c2C#N)c1
assay.readout: viability, T/C
observed: 107
//
compound: Cn1ncnc1[C@H]1c2n[nH]c(=O)c3cc(F)cc(c23)N[C@@H]1c1ccc(F)cc1 + COC1C(OC(N)=O)C(O)C(Oc2ccc3c(O)c(NC(=O)c4ccc(O)c(CC=C(C)C)c4)c(=O)oc3c2C)OC1(C)C
assay.readout: viability, T/C
observed: 108
//
compound: Cn1ncnc1[C@H]1c2n[nH]c(=O)c3cc(F)cc(c23)N[C@@H]1c1ccc(F)cc1 + Nc1ccc(C#CCN(C(=O)Cc2ncc(C(F)(F)F)cc2C(F)(F)F)c2ccc(F)cc2)nn1
assay.readout: viability, T/C
observed: 104

* * *

- Tested on: 188146-221-R-J1-PDC complex spheroid viability
- procedure.details: Anticancer human tumor 188146-221-R-J1-PDC cell line growth inhibition [POLQ];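 further: spheroids exposed to compounds for seven days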
- test.settings: curve of first compound; second compound 3.16 µM
pIC50: −log10 of the molar value.
In this section we review reported pIC50 values for a set of compounds.

compound: CCc1cc2c(N3CCc4c(cc(Cn5ccnc5)cc4-c4cn(C)nc4C(F)(F)F)C3=O)cc(C)nc2c(OC)n1 + COC1C(OC(N)=O)C(O)C(Oc2ccc3c(O)c(NC(=O)c4ccc(O)c(CC=C(C)C)c4)c(=O)oc3c2C)OC1(C)C
pIC50: < 5.00

compound: O=C(Nc1ccc(O)c(NS(=O)(=O)c2ccc(F)cc2)c1)c1ccc(-c2ccccc2)cc1 + Nc1ccc(C#CCN(C(=O)Cc2ncc(C(F)(F)F)cc2C(F)(F)F)c2ccc(F)cc2)nn1
pIC50: < 5.00

compound: CC(C)n1c(=O)n(C)c2cnc3cc(F)c(-c4ccc(OCCCN5CCCCC5)nc4)cc3c21 + Nc1ccc(C#CCN(C(=O)Cc2ncc(C(F)(F)F)cc2C(F)(F)F)c2ccc(F)cc2)nn1
pIC50: < 5.00

* * *

- System: 188146-221-R-J1-PDC complex spheroid viability
- procedure.details: Anticancer human tumor 188146-221-R-J1-PDC cell line growth inhibition [POLQ];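 further: spheroids exposed to compounds for seven days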;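 on viability, T/C: 100% = DMSO vehicle control viability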
- test.settings: second compound 0.0316 µM; first compound 3.16 µM; stronger effect = lower value
Each entry below carries its recorded viability, T/C.

compound: O=C(Nc1ccc(O)c(NS(=O)(=O)c2ccc(F)cc2)c1)c1ccc(-c2ccccc2)cc1 + COC1C(OC(N)=O)C(O)C(Oc2ccc3c(O)c(NC(=O)c4ccc(O)c(CC=C(C)C)c4)c(=O)oc3c2C)OC1(C)C
viability, T/C: 86.5%
--
compound: CCc1cc2c(N3CCc4c(cc(Cn5ccnc5)cc4-c4cn(C)nc4C(F)(F)F)C3=O)cc(C)nc2c(OC)n1 + Nc1ccc(C#CCN(C(=O)Cc2ncc(C(F)(F)F)cc2C(F)(F)F)c2ccc(F)cc2)nn1
viability, T/C: 71.2%
--
compound: CNCc1ccc(-c2[nH]c3cc(F)cc4c3c2CCNC4=O)cc1 + COC1C(OC(N)=O)C(O)C(Oc2ccc3c(O)c(NC(=O)c4ccc(O)c(CC=C(C)C)c4)c(=O)oc3c2C)OC1(C)C
viability, T/C: 103%
--
compound: CCCS(=O)(=O)Nc1ccc(F)c(C(=O)c2c[nH]c3ncc(-c4ccc(Cl)cc4)cc23)c1F + COC1C(OC(N)=O)C(O)C(Oc2ccc3c(O)c(NC(=O)c4ccc(O)c(CC=C(C)C)c4)c(=O)oc3c2C)OC1(C)C
viability, T/C: 79.8%
--
compound: CCc1cc2c(N3CCc4c(cc(Cn5ccnc5)cc4-c4cn(C)nc4C(F)(F)F)C3=O)ccnc2c(OC)n1 + Nc1ccc(C#CCN(C(=O)Cc2ncc(C(F)(F)F)cc2C(F)(F)F)c2ccc(F)cc2)nn1
viability, T/C: 73%

* * *

- Tested on: 188146-221-R-J1-PDC complex spheroid viability
- procedure.details: Anticancer human tumor 188146-221-R-J1-PDC cell line growth inhibition [POLQ];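 further: spheroids exposed to compounds for seven days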;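 on viability, T/C: 100% = DMSO vehicle control viability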
- test.settings: second compound 0.0316 µM; first compound 0.0316 µM; stronger effect = lower value
assay.readout: viability, T/C (%)

molecule: CCc1cc2c(N3CCc4c(cc(Cn5ccnc5)cc4-c4cn(C)nc4C(F)(F)F)C3=O)ccnc2c(OC)n1 + Nc1ccc(C#CCN(C(=O)Cc2ncc(C(F)(F)F)cc2C(F)(F)F)c2ccc(F)cc2)nn1
assay.readout: viability, T/C
units.label: %
observed: 105
--
molecule: Cn1ncnc1[C@H]1c2n[nH]c(=O)c3cc(F)cc(c23)N[C@@H]1c1ccc(F)cc1 + COC1C(OC(N)=O)C(O)C(Oc2ccc3c(O)c(NC(=O)c4ccc(O)c(CC=C(C)C)c4)c(=O)oc3c2C)OC1(C)C
assay.readout: viability, T/C
units.label: %
observed: 97.9
--
molecule: CC(C)n1c(=O)n(C)c2cnc3cc(F)c(-c4ccc(OCCCN5CCCCC5)nc4)cc3c21 + Cc1cccc(N(C)C(=O)C2C(O)CCN2c2nc(C)cc(C(F)(F)F)c2C#N)c1
assay.readout: viability, T/C
units.label: %
observed: 110
--
molecule: O=C(c1cc(Cc2n[nH]c(=O)c3ccccc23)ccc1F)N1CCN(C(=O)C2CC2)CC1 + COC1C(OC(N)=O)C(O)C(Oc2ccc3c(O)c(NC(=O)c4ccc(O)c(CC=C(C)C)c4)c(=O)oc3c2C)OC1(C)C
assay.readout: viability, T/C
units.label: %
observed: 93.5
